Where these numbers come from: patent US20210139565A1

Target: T1, Y. pestis LcrV protein (Yersinia pestis KIM5, UniProt P0C7U7 1-326)
T1 construct: also called LcrV antigen
T1 sequence (P0C7U7 whole entry): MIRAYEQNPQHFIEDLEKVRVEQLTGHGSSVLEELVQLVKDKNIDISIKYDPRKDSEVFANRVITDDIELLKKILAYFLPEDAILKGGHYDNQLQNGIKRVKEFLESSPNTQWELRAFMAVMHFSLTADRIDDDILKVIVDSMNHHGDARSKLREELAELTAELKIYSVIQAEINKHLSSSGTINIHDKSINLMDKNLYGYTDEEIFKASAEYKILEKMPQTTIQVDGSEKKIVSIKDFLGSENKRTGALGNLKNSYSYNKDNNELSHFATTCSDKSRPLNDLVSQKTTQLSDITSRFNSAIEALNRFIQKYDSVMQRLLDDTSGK
Assay: SPR, BIACORE T200, LcrV on CM5 chip, 1:1 model
kon: recorded values
Give me the value, and tack the unit on after it.

These solved cases illustrate the format of a correct answer.
binder="1LCRV28 (VHH) VHH: QVQLQESGGGLVQPGGSLRLSCAASGGTLGYYAIGWFRQAPGKEREAVSCITSSDTSAYYADSAKGRFTISRDNAKNTMYLQMNNLKPEDTAVYYCAAGYYFRDYSDSYYYTGTGMKVWGKGTQVTVSS" result="430000 M⁻¹ s⁻¹"
binder="1LCRV32 (VHH) VHH: QVQLQESGGGMVEPGGSLRLSCAASGFRFSSYAMSWVRQAPGKGLERVSAINSDGDKTSYADSVKGRFTISRDNARNTLYLQMSNLKPEDTAVYYCADRDLYCSGSMCKDVLGGARYDFRGQGTQVTVSS" result="340000 M⁻¹ s⁻¹"
binder="2LCRV11 (VHH) VHH: QVQLQESGGGLVQPGGSTRLSCAASGFTLDIYAIGWFRQAPGKEHEGVSWIVGNDGRTYYIDSVKGRFTISRDNAKNTVYLEMNSLKPEDTAVYYCAAKFWPRYYSGRPPVGRDGYDYWGQGTQVTVSS" result="880000 M⁻¹ s⁻¹"

Quickly give me recorded kon for 1LCRV81 (VHH) VHH: QVQLQESGGGSVQPGGSLKLSCAASGFTFNWYTMAWYRQVPGEERKMVATITGASGDTKYADSVKGRSTISRDNAKNTVTLQMNSLKPGDTAVYYCHACLTYDSGSVKGVNYWGQGTQVTVSS
180000 M⁻¹ s⁻¹

Give the value of kon reported for the following: 1LCRV31 (VHH) VHH: QVQLQESGGGLVQPGGSLGLSCAASGSLLNIYAMGWYRQAPGRQRELVATVTSSGTAEYADSVKGRFTISRDNAKNTVYLQMNSLRPEDTGVYYCNAHLRYGDYVRGPPEYNYWGQGTQVTVSS
170000 M⁻¹ s⁻¹

Tell me its kon given 1LCRV13 (VHH) VHH: QVQLQESGGGLVRPGGSLKLSCAASGFTFNWYTMAWYRQVPGEERKMVATITGASGDTKYADSVKGRFTISRDNAKNTVTLQMNSLKPGDTAVYYCHAYLTYDSGSVKGVNYWGQGTQVTVSS as the entry.
250000 M⁻¹ s⁻¹
